Measured melting point values are reported for all entries that follow.

[[record]]
mol_smiles = "O=C(Cl)c1cnc(O)c(Cl)c1"
val = "> 250 °C"


Consider the additional compound presented here.
// field: melting point; key: C#CCOc1ccc(C2=NC3=CCNC(=O)C3=N2)c(OC)c1 ; value = 178 to 180 °C

====

Entries and their melting point values follow.

Sample answers from the record:
[[record]]
compound = "Cc1cc(O)c(S(=O)Cc2ccc(Cl)c(Cl)c2)c(=O)o1 (stereo unspecified)"
val = "144 to 146 °C"

[[record]]
compound = "CON(CCCc1ccc(Cl)c(Cl)c1)C(=O)C1=C(O)C(=O)N(C)C1"
val = "106 to 108 °C"

[[record]]
compound = "O=c1[nH]cc(-c2cnccn2)cc1Br"
val = "> 250 °C"


Memo: COCCOC(=O)C1CCCCC1C(=O)Nc1cc(OC(C)C)c(Cl)cc1F (stereo unspecified) , reported melting point: 58 to 60 °C

Sure, the documented melting point for Cc1nc(-c2ccc(Br)cc2)sc1C(=O)N[C@H](C)[C@](O)(Cn1cncn1)c1ccc(F)cc1F is 165 to 166 °C

Kindly note the recorded melting point for NC(=O)CCc1conc1-c1ccc(Cl)cc1 , which is 158 to 159 °C

====

Measurement type: melting point

[[record]]
compound = "CP(C)(=O)C(O)C(N)=O (stereo not given)"
measurement_type = "melting point"
val = "155 °C"

[[record]]
compound = "CC(C)(C)OC(=O)N[C@@H](CC(N)=O)C(=O)N1CCN(Cc2ccccc2)CC1"
measurement_type = "melting point"
val = "98 to 100 °C"

[[record]]
compound = "CN1CCN(c2cccc3c2C[C@H](N(C)C(=O)c2ccc(C(F)(F)F)cc2)CC3)CC1"
measurement_type = "melting point"
val = "123 to 125 °C"


Per the record, CCCCNc1cc(Cl)c(S(C)(=O)=O)cc1C(=O)O has melting point of 187 to 189 °C

Reported melting point for CCCCOc1cc(C(CC(=O)OC)N2C(=O)c3ccccc3C2=O)ccc1OC (stereo not given) was 54 to 55 °C

For this compound ( O=C(O)c1cc(Oc2ncc(C(F)(F)F)cc2Cl)ccc1[N+](=O)[O-] ), measured melting point is 131 °C

Noted for COc1ccncc1Nc1nc(N2CCOCC2)nc(-n2c(C(F)F)nc3ccccc32)n1 : its melting point reads 161 to 163 °C

Sample O=c1c2ccccc2nc(-c2cc(-c3ccc(Cl)cc3)c(N3CCOCC3)s2)n1-c1ccc(Cl)cc1 ; melting point observed: 240 to 243 °C

Notebook: COC(=O)C(NC(=O)c1ccc(Cl)cc1)C(=O)OC , melting point read as 146 to 148 °C

// field: melting point; key: CCCCCCCCCCCCCCCCCCCCCC(=O)Oc1cc(C(C)(C)C)c(O)c(C(C)(C)C)c1 ; value = 59 to 61 °C

====

This listing pairs compounds with measured melting point.

Please review the entries below; each comes with its answer.
[[record]]
compound = "CN(C)C=NS(=O)(=O)c1cc(CCNC(=O)C(F)(F)F)ccc1OCC1CCCO1 (stereo not given)"
measurement_type = "melting point"
val = "138 to 140 °C"

[[record]]
compound = "Nc1nc2c(c(Nc3cccc(Br)c3)n1)-c1ccccc1C2"
measurement_type = "melting point"
val = "233 to 236 °C"

[[record]]
compound = "O=S1(=O)N=CN(C2CC2)c2cc(Br)cc(F)c21"
measurement_type = "melting point"
val = "285 to 287 °C"

[[record]]
compound = "CC(=O)N(C(C)=O)c1cnn(-c2cccc(C(F)(F)F)c2)c(=O)c1-c1cccc(C(F)(F)F)c1"
measurement_type = "melting point"
val = "174 °C"


Alright, here's another compound for you.
The measured melting point associated with CCOC(=O)N1CCN(c2c(F)cc([N+](=O)[O-])c(F)c2CO)CC1 reads 147 to 149 °C

====

// reported melting point per item

Known results for compounds:
[[record]]
compound = "O=S(=O)(c1ccccc1)c1n[nH]c2ccccc12"
val = "118 °C"

[[record]]
compound = "CC(=O)Oc1ccc(C(=O)OCC[C@H](C)COC(=O)c2ccc(OC(C)=O)cc2)cc1"
val = "46 °C"

[[record]]
compound = "COc1ccc(C(=S)Nc2ccccc2)cc1NS(=O)(=O)c1cc(Cl)cc(Cl)c1"
val = "206 to 208 °C"

[[record]]
compound = "CCn1c(Cn2ccnc2-c2cc(F)ccc2F)nc2ncccc21"
val = "214 to 216 °C"


Recorded result, C=C(C(=O)OCC)N1C(C)(C)CC(OC(=O)C=CC(=O)OC2CC(C)(C)N(C(=C)C(=O)OCC)C(C)(C)C2)CC1(C)C , melting point: 185 to 186 °C

For reference, reported melting point for COc1cc(Nc2nccc(-c3cccc(NCCCO)c3)n2)cc(OC)c1OC stands at 92 to 95 °C

Memo: CCC(C)Nc1nc(-c2cc(OC)c(OC)c(OC)c2)nc2sc(C#N)c(C)c12 (centres undefined) , reported melting point: 91 to 93 °C

The measured melting point associated with Cc1cc(SC2=C(O)CC(C3CCCC3)(C3CCCC3)OC2=O)c(C(C)(C)C)cc1CO reads 158 to 160 °C

Per the records, this compound ( COc1ccc2c(Cc3ncc(Cl)cc3Cl)nncc2c1C=Cc1ccccc1 ) has melting point equal to 180 to 182 °C

====

Each item that follows carries a reported melting point.

[[record]]
molecule = "O=C(Nc1cccc(S(=O)(=O)C(F)(F)F)c1)c1ccc2ccccc2c1O"
measurement_type = "melting point"
val = "194 to 195 °C"

[[record]]
molecule = "COc1ccc(C2=NN(CCCCOc3ccc(C(=O)O)cc3)C(=O)[C@H]3CC=CC[C@@H]23)cc1Cl (relative stereo)"
measurement_type = "melting point"
val = "169 to 171 °C"

[[record]]
molecule = "C=CCc1c(Cl)cc2c(c1O)CCC2"
measurement_type = "melting point"
val = "37 to 39 °C"

[[record]]
molecule = "COn1cc(C(=O)O)c(=O)c2c3sc(=O)n(C)c3ccc21"
measurement_type = "melting point"
val = "> 300 °C"

[[record]]
molecule = "CCc1cc(Cc2cc(CC)c(N)c(C)c2Cl)c(Cl)c(C)c1N"
measurement_type = "melting point"
val = "115 to 117 °C"

[[record]]
molecule = "O=C1N(c2ccc(Cl)cc2Cl)Cc2cnc(Nc3ccccc3)nc2N1c1ccc(CO)cc1"
measurement_type = "melting point"
val = "121 to 125 °C"


Turning now to a further molecule:
Documented melting point of Cn1c(COc2ccc(CC3SC(=O)NC3=O)cc2)nc2ccc(Oc3ccc4cccc(NC(=O)Nc5ccc(C(F)(F)F)cc5)c4c3)cc21 (stereo not drawn) : 250 to 254 °C

====

melting point: recorded values

[[record]]
mol_smiles = "CCOC(=O)c1c(Cn2cncn2)nc2sc(C)c(C)c2c1-c1ccc2c(c1)OCO2"
val = "109 to 110 °C"


Lab note: COC(=O)[C@@H]1C[C@H](Oc2cc(-c3nc(C(C)C)cs3)nc3c(C)c(OC)ccc23)C[C@H]1C(=O)O gave melting point of 135 °C

# melting point (compound: O=C(O)c1cc2cc(CCNS(=O)(=O)c3ccc(Cl)cc3)ccc2o1 ) is 193 to 195 °C

Data point: COC(=O)CCc1[nH]c(Cc2ccc(OCc3nc(-c4ccccc4)oc3C)cc2)nc1-c1ccccc1 ; melting point = 128 to 129 °C

====

Measurement type: melting point

Use these answered entries as a reference point.
[[record]]
molecule = "CCc1ccc2c(=O)c3ccccc3ccc2c1"
val = "62 to 64 °C"

[[record]]
molecule = "CCOC(=O)N1CCC(n2c(=O)n(C)c3cc(Cl)ccc32)CC1"
val = "122 °C"

[[record]]
molecule = "COC(=NC#N)NCc1ccc(-c2csc(N=C(N)N)n2)o1"
val = "205 to 206 °C"

[[record]]
molecule = "CCOC(=O)Nc1ccc2c(c1)C(c1ccccc1Cl)=CCC(=O)N2"
val = "241 °C"

[[record]]
molecule = "Cn1c(CCC(=O)O)ccc1C(=O)c1ccc(Cl)cc1"
val = "188 to 191 °C"


Turning now to a further molecule:
The molecule CC(Oc1ncn(-c2ccc(Cl)cc2)n1)C(=O)O (configuration not stated) showed melting point equal to 196 to 198 °C

====

Quick reference: melting point of the listed items.

Study these solved cases before continuing.
[[record]]
compound = "COC(=O)CP(=O)(O)C(CCc1ccccc1)NC(=O)OCc1ccccc1 (centres undefined)"
measurement_type = "melting point"
val = "143 to 147 °C"

[[record]]
compound = "CC(C)(C)c1nc(-c2nn(-c3ccc(F)cc3F)c3c2C2CCC3C2)no1 (centres undefined)"
measurement_type = "melting point"
val = "119 to 121 °C"

[[record]]
compound = "CC#CCn1nc(-c2ccc(F)cc2)c(-c2ccc(S(C)(=O)=O)cc2)cc1=O"
measurement_type = "melting point"
val = "81 to 82 °C"


Lab book: melting point of CCOc1cc2c(Nc3ccc(Sc4nccn4C)c(Cl)c3)c(C#N)cnc2cc1N1CCC(N2CCCC2)CC1 noted as 203 to 207 °C

Record summary for CCC(=C(c1ccccc1)c1ccc(C=CCO)cc1)c1ccccc1 : reported melting point = 80 to 83 °C

Lookup result for COc1ccc(CS(=O)(=O)C(C)(Cc2ccccc2)C(=O)N(O)O)cc1 (centres undefined) ; measured melting point: 58 to 59 °C

Lookup result for CNS(=O)(=O)c1cccc(-c2cc(-c3nc(-c4ccc(C(F)(F)F)cc4)cc(C(F)(F)F)n3)ccn2)c1 ; measured melting point: 174 °C

Noted for CCOC(=O)CCN(C(C)(C)C(=O)NO)S(=O)(=O)c1ccc(Oc2ccc(F)cc2)cc1 : its melting point reads 125 °C

# compound CCOC(=O)C(=O)c1csc(NC(c2ccccc2F)c2ccccc2F)n1 ; its melting point = 122 to 124 °C

The value of melting point measured for the compound CON=C(Cl)c1ccccc1S(=O)(=O)NC(=O)Nc1nc(C)nc(OC)n1 turned out to be 182 to 184 °C
